Assay: amyloid nucleation score (Sup35N fusion, yeast selection) (log enrichment); library NNK1; higher = more nucleation; inactive = no reads after selection;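 also: zero at mode of non-aggregating sequences after 7 days selection at 30°C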
Reported Endpoint: amyloid nucleation score

Use these answered entries as a reference point.
NIVNYFSCLKALNKFLHKMG 0.609
TATGGASETERTAVTMY -0.609
DMKDDRRSFTKGP -0.103
LRSFIGRRS 0.272
RSASAREHNTALRSRPARVG -0.353

Form: substance = `LILFWF` ; amyloid nucleation score = -0.5

Kindly note the recorded amyloid nucleation score for `TFHNSYLYGTRNVWMLYSVR` , which is 3.47

Sample `LEDHVWKVVVYLSKNDVCMG` ; amyloid nucleation score observed: 0.269

Entry `WSKTSDDSVWWTWTDGIMFV` , amyloid nucleation score reported as 1.92

For `ALSSVNFFQLL` the substance record lists amyloid nucleation score as 4.45

The recorded amyloid nucleation score for `DWNSNPPHSASAGLPLRFWK` is inactive

====

Assay: amyloid nucleation score (Sup35N fusion, yeast selection) (log enrichment); library NNK3; higher = more nucleation; inactive = no reads after selection
Reported Endpoint: amyloid nucleation score

Solved entries:
DLHVLSVK inactive
NVDDLGFLFIVDAYINCHFR 1.58
VYFDDRTYRYRVAHIKFSFR 2.94
VRFTHKCSLG inactive
TVRYVVSASTWHMSLQSPTL 1.33

amyloid nucleation score for `LRGFMISSWDFFADGSDVRL` is inactive

Field amyloid nucleation score (entry `VFSGGVRETLNSS` ) reads inactive

`ATCWDEYDPRDPLA` has a reported amyloid nucleation score of inactive

====

Assay: amyloid nucleation score (Sup35N fusion, yeast selection) (log enrichment); library NNK2; higher = more nucleation; inactive = no reads after selection
Examples of substances with documented amyloid nucleation score follow.
Keep the answer to the number alone.

Look over these answered cases.
IQSFVKYKNVSRMYLTCPNL 1.2
HSNLVT 0.234
CAIAWRMPLDRPPLKE -0.627
SLGNVELRQ -0.679
TYAYYH 5.61
CQLFMQSSRCIRRRFATSAC -0.295
VKPVFWKLGWRDYLYSMRQF -1.11
FGLDYVTYVRWAGVCHLLYF -0.56
DRFVLIVHINRGRV 3.86
LSGLRSFLRRWRGQVKPVLV -0.133

From here, focus on the item given below.
The substance `ILNYSWALRVIDFTHRKVFS` showed amyloid nucleation score equal to -0.376

====

Assay: amyloid nucleation score (Sup35N fusion, yeast selection) (log enrichment); library NNK3; higher = more nucleation; inactive = no reads after selection
Reported Endpoint: amyloid nucleation score

Solved entries (count: 5):
TDMMMFICE inactive
KSVRNTAHLWHCVLTIYVYL inactive
RGLRTKVGMSVRNCEYRYVM -0.455
DGPHLPDHGGLM inactive
LPAHTL inactive

amyloid nucleation score in this record for `DTMNLRWSVWRRHVWCLTGE` : inactive

Just so you know, measured amyloid nucleation score for `FRVLDRSKKVNYRSFLYLIR` came out at inactive

Field amyloid nucleation score (entry `YKLERTRPDSFMVCERINGH` ) reads inactive

// field: amyloid nucleation score; key: `VDNNHYQRKSKGFGVAGLIR` ; value = inactive

Memo: `LSLCRNKSIKWVFSLMEIL` , reported amyloid nucleation score: inactive

The substance listed as `KESVYPTWHMRWFVYCELVL` shows amyloid nucleation score equal to inactive

Memo: `FYRSFSPSYNLYMYGIYDR` , reported amyloid nucleation score: 2.77
